Let's look at some compounds and their measured melting point.

Compound | melting point
Cc1ccc2[nH]cc(C(=O)NCc3cccc(CN4CCOCC4)c3)c(=O)c2c1 [compound 127] | 140 to 144 °C
Cl.O=C(NCc1ccc(CN2CCOCC2)cc1)c1c[nH]c2ccccc2c1=O | 177 to 180 °C
CCOc1ccc2[nH]cc(C(=O)NCc3ccc(CN4CCCC4)cc3)c(=O)c2c1 [compound 103] | 168 to 171 °C
CC(C)CCNC(=O)c1c[nH]c2ccccc2c1=O [compound 4] | 180 to 181 °C
CN(C)Cc1ccc(CNC(=O)c2c[nH]c3ccc(Cl)cc3c2=O)cc1.Cl | 198 °C (dec.)
CCOc1ccc2[nH]cc(C(=O)NCc3ccc(CN(C)Cc4ccccc4)cc3)c(=O)c2c1 [compound 98] | 129 to 131 °C
CCOc1ccc2[nH]cc(C(=O)NCc3ccc(Cn4ccnc4)cc3)c(=O)c2c1 [compound 66] | 161 to 165 °C
O=C(NCc1ccccc1)c1c[nH]c2ccccc2c1=O [compound 5] | 173 °C
Cl.O=C(NCc1ccccc1)c1c[nH]c2c(F)cccc2c1=O | 235 to 237 °C
CN(C)Cc1cccc(CNC(=O)c2c[nH]c3ccc(Cl)cc3c2=O)c1.Cl | 178 °C (dec.)
CCOc1ccc2[nH]cc(C(=O)NCc3ccc(CN(CC)Cc4ccccc4)cc3)c(=O)c2c1 [compound 97] | 129 to 132 °C
CCOc1ccc2[nH]cc(C(=O)NCc3cccc(CN4CCOCC4)c3)c(=O)c2c1 [compound 117] | 173 to 177 °C
CCOc1ccc2[nH]cc(C(=O)NC)c(=O)c2c1 [compound 58] | 279 to 281 °C
COCc1ccc2[nH]cc(C(=O)NCc3ccccc3)c(=O)c2c1 [compound 31] | 195 to 196 °C
CCOCCCNC(=O)c1c[nH]c2ccc(COC)cc2c1=O [compound 33] | 95 to 97 °C
CCOc1ccc2[nH]cc(C(=O)NCCCOC)c(=O)c2c1 [compound 48] | 175 to 177 °C
COCc1ccc2[nH]cc(C(=O)NCc3cccs3)c(=O)c2c1 [compound 32] | 225 to 226 °C
CCOCCCNC(=O)c1c[nH]c2ccccc2c1=O [compound 17] | 141 to 142 °C
CCOc1ccc2[nH]cc(C(=O)NCc3ccccc3F)c(=O)c2c1 [compound 49] | 237 to 238 °C
O=C(NCc1ccco1)c1c[nH]c2ccccc2c1=O [compound 9] | 193 to 195 °C
O=C(NCc1ccc(F)cc1)c1c[nH]c2ccc(Cl)cc2c1=O [compound 73] | 273 to 276 °C
CCOc1ccc2[nH]cc(C(=O)NCc3ccc(CN(C)CCc4ccccc4)cc3)c(=O)c2c1 [compound 99] | 137 to 139 °C
O=C(NCc1ccc2c(c1)OCO2)c1c[nH]c2ccccc2c1=O [compound 11] | 207 °C
CCCCNC(=O)c1c[nH]c2ccc(OCC)cc2c1=O [compound 53] | 190 to 191 °C
CCCCCNC(=O)c1c[nH]c2ccc(OCC)cc2c1=O [compound 54] | 180 to 183 °C
CCOc1ccc2[nH]cc(C(=O)NC3CCCCC3)c(=O)c2c1 [compound 46] | 191 to 193 °C
CCCCCCNC(=O)c1c[nH]c2ccc(OCC)cc2c1=O [compound 57] | 181 to 182 °C
CCNCc1ccc(CNC(=O)c2c[nH]c3ccccc3c2=O)cc1.Cl | 252 °C (dec.)
Cc1nc(Cc2ccc(CNC(=O)c3c[nH]c4ccc(F)cc4c3=O)cc2)c[nH]1.Cl | 120 to 122 °C
CCOCCCNC(=O)c1c[nH]c2ccc(OCC)cc2c1=O [compound 42] | 179 to 181 °C
CCOc1ccc2[nH]cc(C(=O)NCc3ccccn3)c(=O)c2c1 [compound 51] | 221 to 222 °C
CCCCNC(=O)c1c[nH]c2ccc(COC)cc2c1=O [compound 34] | 157 to 159 °C
COCc1ccc2[nH]cc(C(=O)NCc3cccc(CN4CCOCC4)c3)c(=O)c2c1 [compound 105] | 151 to 153 °C
CCCCNC(=O)c1c[nH]c2c(F)cccc2c1=O.Cl | 205 to 207 °C
CCOc1ccc2[nH]cc(C(=O)NCc3cccc(CN(C)Cc4ccccc4)c3)c(=O)c2c1 [compound 108] | 144 to 146 °C
COc1ccc(CNC(=O)c2c[nH]c3ccccc3c2=O)cc1OC [compound 12] | 211 to 212 °C

###

Let's look at some molecules and their measured melting point.

Molecule | melting point
CCOc1ccc2[nH]cc(C(=O)NCc3ccccc3)c(=O)c2c1 [compound 39] | 209 to 211 °C
O=C(NCc1ccc(F)cc1)c1c[nH]c2ccccc2c1=O [compound 8] | 213 to 215 °C
CCOc1ccc2[nH]cc(C(=O)NCC3CCCO3)c(=O)c2c1 (stereo not drawn) [compound 44] | 181 to 182 °C
CCOc1ccc2[nH]cc(C(=O)NCc3ccc(CN(C)C)cc3)c(=O)c2c1.Cl | 222 to 225 °C (dec.)
CCOc1ccc2[nH]cc(C(=O)NCc3ccc(CNCCN4CCOCC4)cc3)c(=O)c2c1 [compound 83] | 123 to 127 °C
CCOc1ccc(CNC(=O)c2c[nH]c3ccccc3c2=O)cc1 [compound 16] | 203 to 205 °C
O=C(NCC1CCCO1)c1c[nH]c2ccccc2c1=O (stereo not drawn) [compound 1] | 205 to 209 °C
CCOc1ccc2[nH]cc(C(=O)NCc3ccc4c(c3)OCO4)c(=O)c2c1 [compound 47] | 226 to 228 °C
O=C(NCc1cccs1)c1c[nH]c2ccccc2c1=O [compound 13] | 235 to 240 °C

###

Let's look at some compounds and their measured melting point.

Test smiles | melting point
CCOc1ccc2[nH]cc(C(=O)NCc3ccc(CN4CCCCC4)cc3)c(=O)c2c1 | 172 to 174 °C
CCOc1ccc2[nH]cc(C(=O)NCCCOC(C)C)c(=O)c2c1 | 163 to 164 °C
CCNCc1cccc(CNC(=O)c2c[nH]c3ccc(Cl)cc3c2=O)c1 | 148 °C (dec.)
CCOc1ccc2[nH]cc(C(=O)NCC(C)C)c(=O)c2c1 | 214 to 216 °C
CCOc1ccc2[nH]cc(C(=O)NCc3cccs3)c(=O)c2c1 | 223 to 224 °C
Cl.O=C(NCc1cccc(CN2CCOCC2)c1)c1c[nH]c2ccccc2c1=O | 203 to 208 °C
CCOc1ccc2[nH]cc(C(=O)NCc3cccc(F)c3)c(=O)c2c1 | 210 to 212 °C
CCCNC(=O)c1c[nH]c2ccc(OCC)cc2c1=O | 219 to 221 °C
CCOc1ccc2[nH]cc(C(=O)NCCC(C)C)c(=O)c2c1 | 180 to 183 °C

###

Compound | melting point
CCOc1ccc2[nH]cc(C(=O)NCc3ccsc3)c(=O)c2c1 | 203 to 205 °C
CCOc1ccc2[nH]cc(C(=O)NCc3cccnc3)c(=O)c2c1 | 222 to 224 °C
CNC(C)c1cccc(CNC(=O)c2c[nH]c3ccc(Cl)cc3c2=O)c1.Cl (centres unmarked) | 184 °C (dec.)
CCOc1ccc2[nH]cc(C(=O)NCc3ccc(CN(Cc4ccccc4)Cc4ccccc4)cc3)c(=O)c2c1 | 162 to 164 °C
COc1ccc2[nH]cc(C(=O)NCc3cccc(CN(C)Cc4ccccc4)c3)c(=O)c2c1 | 186 to 188 °C
